Target: T1, hu-IL-2Rβ subunit (human, UniProt P14784 27-240, limits assumed)
T1 construct: also called human interleukin-2 receptor subunit β; CD122
T1 sequence (looked up): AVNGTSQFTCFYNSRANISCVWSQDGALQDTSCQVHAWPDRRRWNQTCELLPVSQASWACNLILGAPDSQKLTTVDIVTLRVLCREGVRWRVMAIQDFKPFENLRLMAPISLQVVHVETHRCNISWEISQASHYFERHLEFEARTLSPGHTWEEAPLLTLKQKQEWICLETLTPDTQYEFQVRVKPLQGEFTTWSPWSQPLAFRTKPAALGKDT
Assay: phage ELISA competition assay
pIC50: −log10 of the molar value. Positions of bridges follow the written chain, without caps; N, C: chain ends. No end group written: not given here.
Parameter pIC50: see the listing below.

binder	pIC50
NEPEGGFYPCWLAQLGELCDLH (disulfide 10-19 (inferred)) [SEQ ID NO 136]	> 4.00
WYPCWMARLGELCDLE [SEQ ID NO 137]	> 4.00
WWPCSIARLGQLCDLD [SEQ ID NO 394]	> 4.00
WLPCWIARLGDLCDLE [SEQ ID NO 80]	> 4.00
WYTCMMDWLGVHCELE [SEQ ID NO 547]	> 4.00
VRPMGVWYPCWIAQLGELCDLV [SEQ ID NO 149]	> 4.00
HIFHDCFIAKVGDLCDLFHS [SEQ ID NO 573]	> 4.00
KWVHDCFLAKVGDVCDLFVV [SEQ ID NO 529]	> 4.00
YSFKDCYFAKVGELCELFLW [SEQ ID NO 544]	> 4.00
SATWYPCFLANLGELCDLEQEN [SEQ ID NO 373]	> 4.00
FYPCWAAHLGDLCDLEYQEAGP [SEQ ID NO 421]	> 4.00
WYPCWVAQLGELCDLE [SEQ ID NO 462]	> 4.00
RREWYPCWIAQVGELCDLPLI [SEQ ID NO 343]	> 4.00
SGHCYPCWLAGLGELCDLNCG [SEQ ID NO 172]	> 4.00
VRAWYPCWIARLGELCDLEVD [SEQ ID NO 178]	> 4.00

These data points were gathered from patent US20240101959A1.
